Target: human Haspin (Homo sapiens)
Sequence (Q8TF76 whole entry): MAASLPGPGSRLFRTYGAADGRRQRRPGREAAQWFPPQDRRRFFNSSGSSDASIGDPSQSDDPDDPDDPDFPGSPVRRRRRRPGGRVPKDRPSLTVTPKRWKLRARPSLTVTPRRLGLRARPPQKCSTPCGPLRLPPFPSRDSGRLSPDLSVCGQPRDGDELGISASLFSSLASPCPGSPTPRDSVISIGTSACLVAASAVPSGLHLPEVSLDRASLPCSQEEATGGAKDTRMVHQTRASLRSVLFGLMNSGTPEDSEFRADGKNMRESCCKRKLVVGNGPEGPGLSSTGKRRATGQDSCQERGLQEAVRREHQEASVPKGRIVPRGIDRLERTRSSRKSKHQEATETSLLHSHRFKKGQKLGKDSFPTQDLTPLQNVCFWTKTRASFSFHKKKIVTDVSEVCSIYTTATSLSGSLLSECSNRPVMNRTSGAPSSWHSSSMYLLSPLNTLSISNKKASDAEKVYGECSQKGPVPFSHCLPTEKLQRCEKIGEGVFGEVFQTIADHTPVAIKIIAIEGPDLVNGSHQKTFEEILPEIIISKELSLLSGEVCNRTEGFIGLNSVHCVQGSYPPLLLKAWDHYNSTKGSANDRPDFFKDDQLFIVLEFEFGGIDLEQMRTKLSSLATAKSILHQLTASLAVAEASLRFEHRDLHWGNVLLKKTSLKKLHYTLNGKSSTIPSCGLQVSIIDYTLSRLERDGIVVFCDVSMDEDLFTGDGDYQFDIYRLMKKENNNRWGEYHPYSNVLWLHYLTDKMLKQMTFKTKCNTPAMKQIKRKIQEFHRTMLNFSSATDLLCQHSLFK
ENDPOINT LABEL: IC50 (µM)
Enter your answer as a number in µM; do not include the unit.

# IC50 measured on human Haspin (Homo sapiens) for item O=C(O)c1ccc(-c2c[nH]c3ncc(-c4ccccc4)cc23)cc1C1CCCC1 = 41.4

---

Tested on: MCF-7
Assay: MTT cell proliferation assay, MCF-7
Type: cell-based
Conditions: Homo sapiens, MCF7; MCF-7, MTT; read-out: IC50, inhibition of proliferation
ENDPOINT LABEL: pIC50
Lab note — pIC50 values are minus log10 of concentrations in M.

So for O=C(O)c1ccc(-c2c[nH]c3ncc(-c4ccccc4)cc23)cc1C1CCCC1 , the logged pIC50 turned out to be 5.85
